For reference, the following Ki results for 72 kDa type IV collagenase (Homo sapiens, UniProt P08253) were taken from various sources.

Input: Can you look up Ki on 72 kDa type IV collagenase (Homo sapiens, UniProt P08253) for O=C(N[C@@H]1COC[C@@H]1C(=O)NO)c1ccc(Cn2c(C(F)(F)F)nc3ccccc32)cc1 ?
Output: > 3330 nM

Input: What value of Ki on 72 kDa type IV collagenase (Homo sapiens, UniProt P08253) does Cc1ccc(CCC[C@H](CC(=O)NO)C(=O)N[C@@H](CC2CCCCC2)C(=O)NCCC(=O)NCCc2ccc(S(N)(=O)=O)cc2)cc1 have?
Output: 0.02 nM

Input: # value lookup — system 72 kDa type IV collagenase (Homo sapiens, UniProt P08253), readout Ki, item CC#CCOc1ccc(S(=O)(=O)N2CCCC(S)C2)cc1 (racemic)
Output: > 3000 nM

Input: Fill in the recorded Ki for this compound, with 72 kDa type IV collagenase (Homo sapiens, UniProt P08253) as test system: COC(=O)c1ccc(C(CC(=O)NO)S(=O)(=O)c2ccc(OC)cc2)cc1 (stereo not drawn)
Sequence (P08253 whole entry): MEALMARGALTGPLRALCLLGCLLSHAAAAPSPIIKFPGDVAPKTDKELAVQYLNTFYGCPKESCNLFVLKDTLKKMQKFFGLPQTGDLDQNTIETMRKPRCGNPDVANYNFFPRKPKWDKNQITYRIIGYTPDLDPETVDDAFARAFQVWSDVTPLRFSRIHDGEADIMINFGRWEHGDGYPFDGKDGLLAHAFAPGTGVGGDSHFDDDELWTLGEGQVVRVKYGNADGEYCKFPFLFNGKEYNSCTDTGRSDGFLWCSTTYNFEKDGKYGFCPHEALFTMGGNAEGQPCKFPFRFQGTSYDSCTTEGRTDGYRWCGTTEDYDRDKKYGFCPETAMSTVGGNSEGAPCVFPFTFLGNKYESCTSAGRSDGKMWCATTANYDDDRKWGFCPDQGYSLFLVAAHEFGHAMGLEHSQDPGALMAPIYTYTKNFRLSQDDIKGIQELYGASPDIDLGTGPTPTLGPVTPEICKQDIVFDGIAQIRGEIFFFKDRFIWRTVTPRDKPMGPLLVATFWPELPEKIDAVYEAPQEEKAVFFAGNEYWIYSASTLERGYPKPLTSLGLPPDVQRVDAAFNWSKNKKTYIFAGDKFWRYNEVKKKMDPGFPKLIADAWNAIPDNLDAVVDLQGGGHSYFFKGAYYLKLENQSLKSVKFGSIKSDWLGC
Output: 88 nM

Input: Lookup: Ki / 72 kDa type IV collagenase (Homo sapiens, UniProt P08253) / COc1cc(COc2ccc3c(c2)NCCN([C@@H](C(=O)NO)C(C)C)S3(=O)=O)cc(OC)c1
Output: 647 nM

Input: Request - read-out Ki | tested on 72 kDa type IV collagenase (Homo sapiens, UniProt P08253) | compound C#CCN1C[C@H](C(=O)NO)[C@H](NC(=O)c2ccc(Cn3c(C(C)(C)C)nc4ccccc43)cc2)C1
Output: > 3330 nM

Input: // map CC(C)(C)c1nc2ccccc2n1Cc1ccc(C(=O)N[C@@H]2C[C@@]3(CCCO3)C[C@@H]2C(=O)NO)cc1 to recorded Ki (system: 72 kDa type IV collagenase (Homo sapiens, UniProt P08253))
Output: > 3330 nM

Input: Recorded Ki for Cc1cc(COc2ccc(N3CC[C@H]([C@H](O)C(=O)NO)C3=O)cc2)c2ccccc2n1 with 72 kDa type IV collagenase (Homo sapiens, UniProt P08253), please?
Output: > 3000 nM

====

A compilation of pKi values for 72 kDa type IV collagenase (Homo sapiens, UniProt P08253) from the published literature.
pKi: −log10 of the molar value.

Input: Name the recorded pKi for COc1ccc(S(=O)(=O)C(CCCCc2ccccc2)CC(=O)NO)cc1OC (stereo not drawn) .
Output: < 5.00

Input: Look at this compound and give its reported pKi. CC(C)c1nc2ccccc2n1Cc1ccc(C(=O)N[C@@H]2CNC[C@@H]2C(=O)NO)cc1
Output: < 5.67

Input: Which pKi is listed for O=C(NO)[C@H]1CCC[C@@H]1C(=O)Nc1ccc(COc2ccnc3ccccc23)cc1 ?
Output: < 5.48
